Target: T1, CRH (NT-Biotin) (human and mouse (same sequence), not fully specified; biotin at the N-terminus)
T1 peptide: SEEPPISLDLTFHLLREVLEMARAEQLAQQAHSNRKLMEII
Assay: ELISA, biotinylated CRH on streptavidin plate
Reported EC50 values are given for each entry in this list.
Answer with a number only, understood to be in pM.

Below, each entry is followed by its recorded EC50 result.
// returns reported EC50 for input PR006146 (antibody, human IgG1, kappa, V domains shown, PTM-removal variant of PR004290) VH: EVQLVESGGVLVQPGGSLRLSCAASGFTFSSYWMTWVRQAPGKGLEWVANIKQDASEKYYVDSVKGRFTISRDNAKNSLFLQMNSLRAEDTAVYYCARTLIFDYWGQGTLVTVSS VL: DIVMTQSPLSLPVTPGEPASISCRSSQSLLHSTGYDSLEWYLQKPGQSPQLLIYLGSNRASGVPDRFSGSGSGTDFTLKISRVEAEDVGIYYCMQTLQTPITFGQGTRLEIKR
25

// returns reported EC50 for input PR005658 (antibody, human IgG1, kappa, V domains shown, PTM-removal variant of PR004290) VH: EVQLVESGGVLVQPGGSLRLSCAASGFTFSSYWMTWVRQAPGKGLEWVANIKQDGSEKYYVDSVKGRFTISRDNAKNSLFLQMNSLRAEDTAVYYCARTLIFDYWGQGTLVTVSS VL: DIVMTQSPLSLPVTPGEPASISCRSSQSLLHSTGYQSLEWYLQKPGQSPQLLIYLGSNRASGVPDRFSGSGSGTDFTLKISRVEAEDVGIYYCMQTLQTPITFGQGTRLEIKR
26

Further cases:
// returns reported EC50 for input PR006148 (antibody, human IgG1, kappa, V domains shown, PTM-removal variant of PR004290) VH: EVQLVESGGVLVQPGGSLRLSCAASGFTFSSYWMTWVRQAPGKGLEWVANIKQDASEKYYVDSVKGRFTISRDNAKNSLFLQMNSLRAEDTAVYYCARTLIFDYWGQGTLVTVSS VL: DIVMTQSPLSLPVTPGEPASISCRSSQSLLHSTGYNPLEWYLQKPGQSPQLLIYLGSNRASGVPDRFSGSGSGTDFTLKISRVEAEDVGIYYCMQTLQTPITFGQGTRLEIKR
35
